# targetUnderTest: water-insoluble glucan producing enzyme (Streptococcus downei)
# Construct: endogenous in cells; host or cells: Streptococcus mutans 6715 strain (today S. sobrinus), culture supernatant, ammonium sulfate precipitate, dialyzed
# Sequence (P27470 39-1592): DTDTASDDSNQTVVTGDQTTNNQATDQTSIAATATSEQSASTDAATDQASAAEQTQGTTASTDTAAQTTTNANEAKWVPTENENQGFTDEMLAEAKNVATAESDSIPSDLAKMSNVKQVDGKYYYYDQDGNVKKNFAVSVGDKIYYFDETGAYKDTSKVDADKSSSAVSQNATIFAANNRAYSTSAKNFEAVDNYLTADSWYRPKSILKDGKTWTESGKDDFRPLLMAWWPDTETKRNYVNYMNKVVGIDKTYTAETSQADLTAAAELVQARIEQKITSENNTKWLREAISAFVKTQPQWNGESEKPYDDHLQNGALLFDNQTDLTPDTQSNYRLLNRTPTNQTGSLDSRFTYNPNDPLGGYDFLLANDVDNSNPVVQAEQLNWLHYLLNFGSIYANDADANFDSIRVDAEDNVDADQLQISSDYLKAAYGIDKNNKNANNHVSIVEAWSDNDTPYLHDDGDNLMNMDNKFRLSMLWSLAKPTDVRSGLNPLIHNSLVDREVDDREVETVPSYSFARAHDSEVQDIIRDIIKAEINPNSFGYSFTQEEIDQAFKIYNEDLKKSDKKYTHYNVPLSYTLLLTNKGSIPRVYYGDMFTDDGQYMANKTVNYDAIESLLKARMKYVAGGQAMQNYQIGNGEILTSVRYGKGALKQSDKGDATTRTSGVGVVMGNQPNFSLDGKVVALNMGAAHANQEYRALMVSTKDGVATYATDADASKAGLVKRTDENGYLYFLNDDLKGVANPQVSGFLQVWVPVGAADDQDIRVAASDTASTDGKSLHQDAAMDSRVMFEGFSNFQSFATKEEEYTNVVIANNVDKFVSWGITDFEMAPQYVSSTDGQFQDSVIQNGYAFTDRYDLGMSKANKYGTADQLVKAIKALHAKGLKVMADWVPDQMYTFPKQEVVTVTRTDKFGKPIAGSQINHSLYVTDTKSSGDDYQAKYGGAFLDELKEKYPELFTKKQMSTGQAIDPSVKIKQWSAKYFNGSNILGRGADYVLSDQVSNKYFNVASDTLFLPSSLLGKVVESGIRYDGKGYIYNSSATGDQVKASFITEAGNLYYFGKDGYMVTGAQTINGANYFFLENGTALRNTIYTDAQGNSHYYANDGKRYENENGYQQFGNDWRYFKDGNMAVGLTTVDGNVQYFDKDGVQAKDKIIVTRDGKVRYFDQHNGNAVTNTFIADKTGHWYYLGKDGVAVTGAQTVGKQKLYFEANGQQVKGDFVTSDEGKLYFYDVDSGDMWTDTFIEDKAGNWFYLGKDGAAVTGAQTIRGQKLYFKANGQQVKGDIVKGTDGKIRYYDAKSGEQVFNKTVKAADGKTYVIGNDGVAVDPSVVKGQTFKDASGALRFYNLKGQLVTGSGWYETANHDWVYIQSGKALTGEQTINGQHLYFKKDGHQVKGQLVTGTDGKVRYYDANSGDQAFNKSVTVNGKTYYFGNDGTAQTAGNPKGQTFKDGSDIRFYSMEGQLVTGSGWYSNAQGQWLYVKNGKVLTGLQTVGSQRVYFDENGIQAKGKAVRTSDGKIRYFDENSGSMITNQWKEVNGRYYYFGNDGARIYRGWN
# methodDescription: Effect of saccharides on formation of water-insoluble glucan from sucrose (Experiment 3)
# Assay type: biochemical, Streptococcus mutans 6715 strain
# measurementConditions: 1 ml 4 w/v % sucrose plus 1 ml 4 w/v % saccharide, 0.02 units enzyme, 37° C., 16 hours
Label scheme for B: inhibition degree on water-insoluble glucan formation: lower than 8% is Not met, 8% and above is Met.

Please review the entries below; each comes with its answer.
// inclusive: B: inhibition degree on water-insoluble glucan formation at least 8%? input: `OC[C@@H](O)[C@@H](O)[C@H](O)[C@H](O)CO` Not met

Dear colleague, could you confirm whether `OC[C@@H](O)[C@@H](O)CO` has B: inhibition degree on water-insoluble glucan formation at or above 8%? Not met

# bool: B: inhibition degree on water-insoluble glucan formation of `O=C(CO)[C@@H](O[C@H]1O[C@H](CO)[C@@H](O)[C@H](O)[C@H]1O)[C@H](O)[C@H](O)CO` >= 8% Met

Quick check: does OC[C@H]1O[C@H](O[C@H]2[C@H](O)[C@@H](O)[C@@H](O[C@H]3[C@H](O)[C@@H](O)[C@@H](O[C@H]4[C@H](O)[C@@H](O)C(O)O[C@@H]4CO)O[C@@H]3CO)O[C@@H]2CO)[C@H](O)[C@@H](O)[C@@H]1O (stereo partly shown) have B: inhibition degree on water-insoluble glucan formation greater than or equal to 8%? Met

Test whether the compound OC[C@H]1OC(O)C[C@@H](O)[C@@H]1O (stereo partly shown) records B: inhibition degree on water-insoluble glucan formation of 8% or higher. Not met

Assess whether reported B: inhibition degree on water-insoluble glucan formation for `OC[C@H](O)[C@@H](O)[C@H](O)[C@H](O)CO[C@H]1O[C@H](CO)[C@@H](O[C@H]2O[C@H](CO)[C@@H](O)[C@H](O)[C@H]2O)[C@H](O)[C@H]1O` sits at 8% or higher. Met

Continuing:
Could you please find out whether OC[C@H]1O[C@H](O[C@H]2[C@H](O)[C@@H](O)[C@@H](OC[C@H]3OC(O)[C@H](O)[C@@H](O)[C@@H]3O)O[C@@H]2CO)[C@H](O)[C@@H](O)[C@@H]1O (stereo partly shown) has B: inhibition degree on water-insoluble glucan formation that meets 8% or exceeds it? Not met

API: above_or_equal(metric=B: inhibition degree on water-insoluble glucan formation, cutoff=8%) for item CC(=O)N[C@H]1C(O)O[C@H](CO)[C@@H](O)[C@@H]1O (stereo partly shown) Not met

Can OC[C@H]1O[C@H](O[C@H]2[C@H](O)[C@@H](O)[C@@H](O[C@H]3[C@H](O)[C@@H](O)C(O)O[C@@H]3CO)O[C@@H]2CO)[C@H](O)[C@@H](O)[C@@H]1O (stereo partly shown) be said to have B: inhibition degree on water-insoluble glucan formation at or above 8%? Met

Assess whether reported B: inhibition degree on water-insoluble glucan formation for `OC[C@@H](O)[C@@H](O[C@H]1O[C@H](CO)[C@@H](O[C@H]2O[C@H](CO)[C@@H](O[C@H]3O[C@H](CO)[C@@H](O[C@H]4O[C@H](CO)[C@@H](O)[C@H](O)[C@H]4O)[C@H](O)[C@H]3O)[C@H](O)[C@H]2O)[C@H](O)[C@H]1O)[C@H](O)[C@@H](O)CO` sits at 8% or higher. Met

Is B: inhibition degree on water-insoluble glucan formation at least 8%? Consider `OC[C@H](O)[C@@H](O)[C@H](O)[C@H](O)CO[C@H]1O[C@H](CO)[C@@H](O)[C@H](O)[C@H]1O` Met

Decide: is the reported value of B: inhibition degree on water-insoluble glucan formation for `OC[C@@H](O)[C@H](O)[C@@H](O)CO` equal to or greater than 8%? Not met
